EXPERIMENTAL PROTOCOL: yeast display, Sf9 membrane polyspecificity reagent, FACS + sequencing; frameworks hold sequencing errors
PARAMETER MEASURED: polyreactivity (PSR sort gate)

- QVQLVESGGGLVQAGGSLRLSCAASGITFETYALGWSRQAPGKERELVASIDYDGTSTYYADSVKGRFTISRDNAKNTVYLQMNSLKPEDTAVYYCNARDLDNYGWDDEEYDYWGQGTQVSVSS: low polyreactivity
- QDQPVDSGRCLVQAGGSLRLSCAASGSTFEVYTMGWYRQAPGQERELVAAITKNGGTTYYADSVKGRFTISRDNAKNTVYLLMNSLKPEDTAVYYCAATWPRYGYGYWGQGTQVTVSS: low polyreactivity
- QVQLVESAGGLVQAGGSLRLSCAASGSTFYAYALGWYRQAPGKERELVAAISSDGTNYADSVKGRFTISRDNAKNTVYLQMNSLKPEDTSVYYCDADLLLYSSQDNDYWGQGTQVPVSS: low polyreactivity
- QVQLVESGGGLVQAGGSLRLSCAASGFIFGWYAMGWYRQAPGKERELVAAINWSGTSTYYADSVKGRFTISRDNAKNTVYLQMNILKPEDTAVYYCAAYFQNLPTTGYDYWGQGTQVTVSS: low polyreactivity
- QVQLVESGGGLVQAGGSLRLSCAASGRILYDYDMGWYRQAPGKERELVATISRGGGTNYADSVKGRFTISRDNAKNTVYLQMNSLKPEDTAVYYCAADRWYSRYTRYGYWGQGTQVTVSS: low polyreactivity

(Q) Supply measured polyreactivity (PSR sort gate) of QVQLVESGGCLVQAGGSLRLSCAASGRTFVTYAMRWYRQAPGKERELVAGISRRGGRTYYADSVKGRFTISRDNAKNTVYLQMNSLKPEDTAVYYCAALTYYGSDYWGQGTQVTVSS in your reply.
(A) high polyreactivity

(Q) Supply measured polyreactivity (PSR sort gate) of QVQLVESGGGLVQAGGSLRLSCAASGFTLDYYAMGWYRKAPGKERELVAAISFSGGSTYYADSVKGRFTISRDNAKNTVYLQMNSLKPEDTAVYYCAADPQIVWYDYWGQGTQVTVSS in your reply.
(A) low polyreactivity

(Q) Supply measured polyreactivity (PSR sort gate) of QVQLVESGGGIVQAGGSLRLSCSASGSIFPLDGMGSYRQAPGKERELVAAISIGGRTNYADSVKGRFTISRDNAKNTVYLQMTSLKPEDTAVYYCNAVSKFVYRNRILWYDYWGQGTQVTVSS in your reply.
(A) high polyreactivity
